Test system: Saccharomyces cerevisiae;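 note: PSI is a weighted mean of sequencing reads over stability bins, variants kept only with over 10 reads, mCherry proximal and sfGFP distal, peptide attached via GGGS linker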
test-details: protein stability index of tFT-peptide fusion (C-terminal peptide) (PSI (0-1 scale)); higher = more stable (slower turnover)
experimental-setup: genetic background: wild type; temperature: 30 C
Record form. Attribute: protein stability index. Fill in for each entry.
Answers are plain numbers.

# seq-string, protein stability index
data = [
    ("GGIVLLVRVCGP", 0.422),
    ("LVSVLLLFWFLF", 0.324),
    ("LGDPPCRMIVVR", 0.376),
    ("LVVYLSCVACIN", 0.0185),
    ("CSRVVGLFFLVV", 0.413),
    ("HHACLLPVRKAG", 0.187),
    ("LVFAFFLLSFFI", 0.466),
    ("FPGPPSPPPSYF", 0.647),
    ("VCYLMRSLTFAY", 0.337),
    ("FSMRWTFRYWVN", 0.0542),
]

Report protein stability index for every entry below.
1. QGPHISQYRTHR
2. GHHLRVRVILTA
3. QCSPGLPHAQGL

1. 0.673
2. 0.189
3. 0.666

Report protein stability index for every entry below.
1. PWGSHLYYVVCI
2. LLMWVLFDCHYS
3. VGVSCLVFFGVV

1. 0.221
2. 0.322
3. 0.509
